targetOfAssay: Virion infectivity factor (Human immunodeficiency virus type 1 group M subtype B (isolate BH10)) + Virion infectivity factor (Human immunodeficiency virus type 1 group M subtype B (isolate BRU/LAI)) + Virion infectivity factor (Human immunodeficiency virus type 1 group M subtype B (isolate PCV12)) + Virion infectivity factor (Human immunodeficiency virus type 1 group M subtype B (isolate HXB2)) + DNA dC->dU-editing enzyme APOBEC-3G (Homo sapiens) (UniProt P69720+P69721+P69722+P69723+Q9HC16)
testProtocol: HIV-1 Vif–A3G interaction blockers – biochemical, TR-FRET, GST-Vif 1-94, biotin-A3G peptide, dose response retest, primary screen (AID 1117319);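 note: Vif residues 1-94 fused to GST binding biotinylated APOBEC3G peptide 110-148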
conditionsUsed: TR-FRET GST-Vif / biotin-A3G peptide binding
Inconclusive results are not listed.
Entries and their IC50 values follow.

>>> val("O=C(Nc1ccccc1F)c1coc(=O)c(Br)c1")
"7.06 µM"
>>> val("CNc1ccc(Br)cc(C(=O)/C=C/c2cc(OC)ccc2OC)c1=O")
"3.6 µM"
>>> val("C/C(=N\\O)C(=O)NCc1ccccn1")
"77.5 µM"
>>> val("COc1ccc(S(=O)(=O)N(C(C)=O)c2ccc3oc(=O)sc3c2)cc1")
"88.4 µM"
>>> val("Cc1ccc(CNC(=O)COc2ccc3c(c2)CCC3)cc1")
"44.6 µM"
>>> val("Cc1ccc(C(=O)O)cc1-c1ccc(/C=C2/NC(=O)N(c3ccccc3)C2=O)o1")
"25.5 µM"

Give reported IC50 value for FC(F)(F)c1cc(-c2ccco2)nc(NCc2cccnc2)n1
42.3 µM

Give reported IC50 value for COc1cc2c(cc1OC)C(=O)C(Br)CC2 (configuration not stated)
1.48 µM

Give reported IC50 value for CCC1C/C(=C/c2ccco2)C(=O)/C(=C/c2ccco2)C1 (configuration not stated)
2.59 µM

###

targetOfAssay: Virion infectivity factor (Human immunodeficiency virus type 1 group M subtype B (isolate BH10)) + Virion infectivity factor (Human immunodeficiency virus type 1 group M subtype B (isolate BRU/LAI)) + Virion infectivity factor (Human immunodeficiency virus type 1 group M subtype B (isolate PCV12)) + Virion infectivity factor (Human immunodeficiency virus type 1 group M subtype B (isolate HXB2)) + DNA dC->dU-editing enzyme APOBEC-3G (Homo sapiens) (UniProt P69720+P69721+P69722+P69723+Q9HC16)
testProtocol: HIV-1 Vif–A3G interaction blockers – biochemical, TR-FRET, GST-Vif 1-94, biotin-A3G peptide, dose response retest, primary screen (AID 1117319);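 note: Vif residues 1-94 fused to GST binding biotinylated APOBEC3G peptide 110-148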
conditionsUsed: TR-FRET GST-Vif / biotin-A3G peptide binding
Inconclusive results are not listed.
Entries and their pIC50 values follow.
Friendly reminder that pIC50 comes from taking -log10 of the concentration in mol/L.

A selection of reference data follows.
>>> val("O=C(c1ccccc1Br)N1CCN(c2ccccc2)CC1")
4.41
>>> val("CN(C)[C@@H]1C(=O)C(C(=O)NCN2CCCC2)=C(O)[C@@]2(O)C(=O)C3=C(O)c4c(O)cccc4[C@@](C)(O)C3CC12 (some centres undefined)")
6.48
>>> val("O=[N+]([O-])c1cc(Br)c(O)c(C=Nc2ccc(N3CCOCC3)cc2)c1")
5.14

// moving on: another record for pIC50
Give reported pIC50 value for COc1cc(OC)c2c(O)c3c(c(-c4c5c(c(O)c6c(OC)cc(OC)cc46)CO[C@@H](C)[C@H]5O)c2c1)[C@H](O)[C@H](C)OC3
5.34

###

Entries and their pIC50 values follow.
targetOfAssay: Virion infectivity factor (Human immunodeficiency virus type 1 group M subtype B (isolate BH10)) + Virion infectivity factor (Human immunodeficiency virus type 1 group M subtype B (isolate BRU/LAI)) + Virion infectivity factor (Human immunodeficiency virus type 1 group M subtype B (isolate PCV12)) + Virion infectivity factor (Human immunodeficiency virus type 1 group M subtype B (isolate HXB2)) + DNA dC->dU-editing enzyme APOBEC-3G (Homo sapiens) (UniProt P69720+P69721+P69722+P69723+Q9HC16)
testProtocol: HIV-1 Vif–A3G interaction blockers – biochemical, TR-FRET, GST-Vif 1-94, biotin-A3G peptide, dose response retest, primary screen (AID 1117319);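 note: Vif residues 1-94 fused to GST binding biotinylated APOBEC3G peptide 110-148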
conditionsUsed: TR-FRET GST-Vif / biotin-A3G peptide binding
pIC50: −log10 of the molar value. Records with an inconclusive call do not appear.

>>> val("Cc1cc(Cl)cc2c1NC(=O)[C@]21[C@@H]2C(=O)N(Cc3ccccc3)C(=O)[C@@H]2[C@@H]2CCCN21")
4.42
>>> val("COC(=O)C1=COC(C)C2CN3CCc4c([nH]c5ccccc45)C3CC12 (stereo unspecified)")
4.75
>>> val("COC(=O)/C(=N/Nc1ccccc1C)N1CCCc2ccccc21")
5.72

Give reported pIC50 value for O=C(c1ccc(=O)oc1)N1CCCc2ccccc21
4.42

Give reported pIC50 value for N/C(=N\N=C/c1ccc(-c2ccc(O)c(C(=O)O)c2)o1)N[N+](=O)[O-]
4.82

Give reported pIC50 value for Oc1ccc(NCc2ccccc2OCc2ccccc2)cc1
5.40

Give reported pIC50 value for CCOC(=O)C1CCN(C(=O)Nc2ccc3nc(-c4ccco4)c(-c4ccco4)nc3c2)CC1
> 6.36

Give reported pIC50 value for CCc1ccc(S(=O)(=O)/N=C2\C=CC(=O)c3ccccc32)cc1
5.09

Give reported pIC50 value for CCOC(=O)c1c(C)oc2c1c(C=NCc1ccccn1)c(O)c1ccccc12
5.73

Give reported pIC50 value for CS(=O)(=O)N1CCCC(C(=O)NCCCN2CCC(Cc3ccccc3)CC2)C1 (stereo unspecified)
4.07

Give reported pIC50 value for COc1cc(C(=O)NCC(c2ccco2)N2CCCC2)ccc1OCc1c(C)noc1C (stereo unspecified)
4.00

###

targetOfAssay: Virion infectivity factor (Human immunodeficiency virus type 1 group M subtype B (isolate BH10)) + Virion infectivity factor (Human immunodeficiency virus type 1 group M subtype B (isolate BRU/LAI)) + Virion infectivity factor (Human immunodeficiency virus type 1 group M subtype B (isolate PCV12)) + Virion infectivity factor (Human immunodeficiency virus type 1 group M subtype B (isolate HXB2)) + DNA dC->dU-editing enzyme APOBEC-3G (Homo sapiens) (UniProt P69720+P69721+P69722+P69723+Q9HC16)
testProtocol: HIV-1 Vif–A3G interaction blockers – biochemical, TR-FRET, GST-Vif 1-94, biotin-A3G peptide, dose response retest, primary screen (AID 1117319);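 note: Vif residues 1-94 fused to GST binding biotinylated APOBEC3G peptide 110-148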
conditionsUsed: TR-FRET GST-Vif / biotin-A3G peptide binding
Inconclusive results are not listed.
Entries and their pIC50 values follow.
Friendly reminder that pIC50 comes from taking -log10 of the concentration in mol/L.

>>> val("Cc1cccc(NC(=O)CNC(=O)c2cccc(-n3cccc3)c2)c1C")
4.91

Give reported pIC50 value for CSc1ccccc1NC(=O)c1noc2c1CCC2
4.74

Give reported pIC50 value for Cc1ccc(SCCN2C(=O)NC(C)(C)C2=O)cc1
5.14

Give reported pIC50 value for Cc1ccc2c(c1)c(=O)c1c3n2CCN(C(=O)CCl)C3CC1 (centres undefined)
4.97

###

targetOfAssay: Virion infectivity factor (Human immunodeficiency virus type 1 group M subtype B (isolate BH10)) + Virion infectivity factor (Human immunodeficiency virus type 1 group M subtype B (isolate BRU/LAI)) + Virion infectivity factor (Human immunodeficiency virus type 1 group M subtype B (isolate PCV12)) + Virion infectivity factor (Human immunodeficiency virus type 1 group M subtype B (isolate HXB2)) + DNA dC->dU-editing enzyme APOBEC-3G (Homo sapiens) (UniProt P69720+P69721+P69722+P69723+Q9HC16)
testProtocol: HIV-1 Vif–A3G interaction blockers – biochemical, TR-FRET, GST-Vif 1-94, biotin-A3G peptide, dose response retest, primary screen (AID 1117319);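 note: Vif residues 1-94 fused to GST binding biotinylated APOBEC3G peptide 110-148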
conditionsUsed: TR-FRET GST-Vif / biotin-A3G peptide binding
pIC50: −log10 of the molar value. Inconclusive results are not listed.
Parameter threshold = 5. Response is yes (1) when pIC50 meets or exceeds it, else no (0).

Take a look at these entries with their results.
>>> cat("CCn1c(COc2ccc3c(c2)OCO3)nnc1SCC(=O)c1ccc(Cl)cc1")
"no (0)"
>>> cat("O=C(NCC1CCCO1)c1cc(-c2ccco2)nc2ccccc12 (stereo not drawn)")
"no (0)"

Answer whether pIC50 of Clc1ccc2nc3ccccn3c2c1 is greater than or equal to 5.
no (0)

Answer whether pIC50 of Cc1occc1-c1nnc(SCC(=O)N2CCN(c3ccccc3)CC2)n1C is greater than or equal to 5.
no (0)

Answer whether pIC50 of Cc1c(Cl)cccc1NS(=O)(=O)c1ccc2c(c1)C1C=CCC1C(c1ccc(C(=O)O)cc1)N2 (stereo not drawn) is greater than or equal to 5.
yes (1)

Answer whether pIC50 of Cc1noc(/C=C/c2ccco2)c1S(=O)(=O)N1CCC(C(=O)NCc2ccco2)CC1 is greater than or equal to 5.
yes (1)

Answer whether pIC50 of c1cncc(-c2nnc3sc(-c4ccco4)nn23)c1 is greater than or equal to 5.
no (0)

Answer whether pIC50 of CC(=O)Nc1ccc(NC(=O)CSCc2cnn(-c3ccccc3)c2-n2cccc2)cc1 is greater than or equal to 5.
no (0)

Answer whether pIC50 of C=CCN1CCc2cccc3c2[C@H]1Cc1ccc(O)c(O)c1-3 is greater than or equal to 5.
no (0)

Answer whether pIC50 of CSc1nc(N2CCOCC2)c2c3c(sc2n1)CCC3 is greater than or equal to 5.
no (0)

Answer whether pIC50 of O=C1c2ccccc2C(=O)N1OCCOCCOCCBr is greater than or equal to 5.
no (0)

Answer whether pIC50 of COc1ccc(N=C2NC(=O)/C(=C\C=C\c3ccco3)S2)cc1 is greater than or equal to 5.
yes (1)
